Tested on: ryegrass, Italian (Italian ryegrass, Lolium multiflorum)
Experiment: Test A postemergence
Type: in vivo
Settings: Lolium multiflorum, post-emergence, 240 h, 125 g ai/ha, postemergence, visual injury vs untreated controls after approx. 10 d; 0 = no effect, 100 = complete control; read-out: Ryegrass, Italian plant response rating (0 to 100 scale)
Description: […]
Reported property: pest or weed control at 125 g/ha (%)
Just the number in %, nothing appended.

{"columns": ["Compound", "Test system", "Unit of measurement", "pest or weed control at 125 g/ha"],
 "data": [
  ["CN1C[C@H](c2ccc(C(F)(F)F)c(O)c2)[C@@H](C(=O)Nc2cccc(F)c2F)C1=O", "ryegrass, Italian (Italian ryegrass, Lolium multiflorum)", "%", 20],
  ["COc1ccc(C(F)(F)F)cc1[C@H]1CN(C)C(=O)[C@@H]1C(=O)Nc1ccccc1F", "ryegrass, Italian (Italian ryegrass, Lolium multiflorum)", "%", 50],
  ["CN1C[C@H](c2ccc([Si](C)(C)C)cc2)[C@@H](C(=O)Nc2cccc(F)c2F)C1=O", "ryegrass, Italian (Italian ryegrass, Lolium multiflorum)", "%", 0]
]}

Bench note: what pest or weed control at 125 g/ha did `Cc1cc([C@H]2CN(C)C(=O)[C@@H]2C(=O)Nc2cccc(F)c2F)on1` show?
0

* * *

System: giant foxtail (Setaria faberii)
Experiment: Test A preemergence
Type: in vivo
Conditions: Setaria faberi, pre-emergence, 240 h, 125 g ai/ha, preemergence; 0 to 100 scale where 0 is no effect and 100 is complete control; approx. 10 d; read-out: Foxtail, Giant plant response rating
// reported pest or weed control at 125 g/ha per item
Lab book: enter the figure in %, no units written.

Check out these entries, answers already filled in.
{"columns": ["Smiles entry", "pest or weed control at 125 g/ha (%)"],
 "data": [
  ["Cc1cc([C@H]2CN(C)C(=O)[C@@H]2C(=O)Nc2ccc(F)c(F)c2F)ccc1Br", 90],
  ["CN1C[C@H](c2cc(C(F)F)cs2)[C@@H](C(=O)Nc2cccc(F)n2)C1=O", 100]
]}

Look up pest or weed control at 125 g/ha for this compound: `CN1C[C@H](c2csc3c2CCC3)[C@@H](C(=O)Nc2ccc(F)c(F)c2F)C1=O`
100

Using the record for `O=C1NC[C@H](c2ccc3c(c2)OCO3)[C@H]1C(=O)Nc1cccc(F)c1C(F)(F)F` , report its pest or weed control at 125 g/ha.
0

Form field: reported pest or weed control at 125 g/ha of `O=C(Nc1ccc(F)c(F)c1F)[C@H]1C(=O)N(O)CC[C@@H]1c1ccc(C(F)(F)F)cc1`
0

* * *

As shown below, each of these molecules has a reported pest or weed control at 125 g/ha value.
Tested on: barnyardgrass (Echinochloa crus-galli)
Test: Test A postemergence
Format: in vivo
Conditions: Echinochloa crus-galli, post-emergence, 240 h, 125 g ai/ha, postemergence; visual injury after approximately 10 d; 0 to 100 scale (0 no effect, 100 complete control); read-out: Plant response rating, Barnyardgrass
Include the unit after the number when you answer.

{"columns": ["Smiles entry", "Test system", "Result"],
 "data": [
  ["O=C1NC[C@H](c2ccc(OC(F)F)cc2)[C@H]1C(=O)Nc1ccccc1F", "barnyardgrass (Echinochloa crus-galli)", "80%"],
  ["CC(F)(F)c1cccc([C@H]2CNC(=O)[C@@H]2C(=O)Nc2ccccc2F)c1", "barnyardgrass (Echinochloa crus-galli)", "90%"],
  ["O=C1NC[C@H](c2ccc3c(c2)CCO3)[C@H]1C(=O)Nc1cccc(F)c1F", "barnyardgrass (Echinochloa crus-galli)", "90%"],
  ["CN1C[C@H](c2ccc(C(F)(F)F)cc2)[C@@H](C(=O)Nc2ccccc2C2CC2)C1=O", "barnyardgrass (Echinochloa crus-galli)", "40%"],
  ["CC(F)(F)c1cccc([C@H]2CNC(=O)[C@@H]2C(=O)Nc2ccc(F)cc2F)c1", "barnyardgrass (Echinochloa crus-galli)", "90%"],
  ["O=C1NC[C@H](c2ccc3c(c2)OCO3)[C@H]1C(=O)Nc1ccccc1F", "barnyardgrass (Echinochloa crus-galli)", "70%"],
  ["O=C1NC[C@H](c2cccc(C(F)(F)F)c2)[C@H]1C(=O)Nc1ccccc1C1CC1", "barnyardgrass (Echinochloa crus-galli)", "40%"],
  ["O=C1NC[C@H](c2ccc(C(F)(F)F)cc2)[C@H]1C(=O)Nc1ccccc1C1CC1", "barnyardgrass (Echinochloa crus-galli)", "20%"],
  ["O=C1NCC[C@H](c2ccc(Cl)cc2)[C@H]1C(=O)Nc1cccc(F)c1F", "barnyardgrass (Echinochloa crus-galli)", "70%"]
]}

# input for lookup
So what's the measured pest or weed control at 125 g/ha for this one? `O=C1NC[C@H](c2ccc3c(c2)OCO3)[C@H]1C(=O)Nc1cccc(F)c1F`
70%

* * *

Entries annotated with measured Plant response rating, Ryegrass, Italian
Tested on: ryegrass, Italian (Italian ryegrass, Lolium multiflorum)
Experiment: Test A postemergence
Type: in vivo
Conditions: 500 g ai/ha, postemergence; visual injury, 0 to 100 scale (0 no effect, 100 complete control), approx. 10 d
Source text: […]

The following molecules have reported results that may help.
{"columns": ["Molecule", "Test system", "Plant response rating, Ryegrass, Italian"],
 "data": [
  ["CN1CC(c2ccc(F)c(F)c2)C(C(=O)Nc2ccccc2S(C)(=O)=O)C1=O (centres unmarked)", "ryegrass, Italian (Italian ryegrass, Lolium multiflorum)", 0],
  ["O=C1NCC(c2cccc3ccccc23)C1C(=O)Nc1cccc(F)c1F (racemic)", "ryegrass, Italian (Italian ryegrass, Lolium multiflorum)", 0],
  ["C#Cc1cccc(C2CNC(=O)C2C(=O)Nc2cccc(F)c2F)c1 (racemic)", "ryegrass, Italian (Italian ryegrass, Lolium multiflorum)", 30],
  ["CN1CC(c2ccc(C(C)(F)F)cc2)C(C(=O)Nc2ccc(F)cc2F)C1=O (centres unmarked)", "ryegrass, Italian (Italian ryegrass, Lolium multiflorum)", 70],
  ["Cc1ccc(C2CN(C)C(=O)C2C(=O)Nc2ccccc2S(C)(=O)=O)cc1 (centres unmarked)", "ryegrass, Italian (Italian ryegrass, Lolium multiflorum)", 70],
  ["CN1CC(c2ccc(C(C)(F)F)cc2)C(C(=O)Nc2ccccc2S(C)(=O)=O)C1=O (centres unmarked)", "ryegrass, Italian (Italian ryegrass, Lolium multiflorum)", 60],
  ["Cc1ccc(C2CNC(=O)C2C(=O)Nc2ccccc2F)cc1C(F)(F)F (racemic)", "ryegrass, Italian (Italian ryegrass, Lolium multiflorum)", 60]
]}

Can you share its Plant response rating, Ryegrass, Italian? I mean this molecule: CN1CC(c2cc(F)cc(F)c2)C(C(=O)Nc2ccc(F)cc2F)C1=O (centres unmarked)
50

* * *

System: blackgrass (Alopecurus myosuroides)
Assay: Test C preemergence
Assay type: in vivo
Details: 125 g ai/ha, scale 0 to 100, 0 no effect, 100 complete control
Form field: Plant response rating, Blackgrass (one value per entry).

These solved cases illustrate the format of a correct answer.
{"columns": ["Compound", "Reported property", "Result"],
 "data": [
  ["CC(C)Oc1cccc(C2CN(C)C(=O)C2C(=O)Nc2cccc(F)c2F)c1 (centres unmarked)", "Plant response rating, Blackgrass", 60],
  ["CN1CC(c2cc(F)cc(F)c2)C(C(=O)Nc2cccc(F)c2F)C1=O (centres unmarked)", "Plant response rating, Blackgrass", 90],
  ["CN1CC(c2cccc(OC(F)F)c2)C(C(=O)Nc2ccccc2S(C)(=O)=O)C1=O (centres unmarked)", "Plant response rating, Blackgrass", 20]
]}

Any idea what its Plant response rating, Blackgrass is? The compound is CN1CC(c2cccc(OC(F)(F)C(F)F)c2)C(C(=O)Nc2cccc(F)c2F)C1=O (centres unmarked)
70

Query: Plant response rating, Blackgrass; subject: CN1CC(c2ccc(C(F)(F)F)c(F)c2)C(C(=O)Nc2ccccc2F)C1=O (centres unmarked)
70

* * *

Tested on: giant foxtail (Setaria faberii)
Assay: Test A preemergence
Type: in vivo
Details: Setaria faberi, pre-emergence, 240 h, Preemergence, 31 g ai/ha; 0 to 100 scale (0 no effect, 100 complete control); read-out: Plant response rating, Foxtail, Giant
Reported property: pest or weed control at 31 g/ha (%)
// return numeric value only (unit: %, not printed)

In the examples that follow, each entry is paired with its recorded pest or weed control at 31 g/ha.
{"columns": ["Molecule", "Test system", "Unit of measurement", "pest or weed control at 31 g/ha"],
 "data": [
  ["CN1CC[C@H](c2ccccc2C(F)(F)F)[C@@H](C(=O)Nc2ccc(F)c(F)c2F)C1=O [Compound 1010]", "giant foxtail (Setaria faberii)", "%", 0],
  ["O=C(Nc1ccc(F)c(F)c1F)[C@H]1C(=O)N(C2CC2)CC[C@@H]1c1ccc(F)cc1 [Compound 1004]", "giant foxtail (Setaria faberii)", "%", 0]
]}

Now turn to the next molecule.
pest or weed control at 31 g/ha of CN1CC[C@H](c2ccccc2C(F)(F)F)[C@@H](C(=O)Nc2cccc(F)c2F)C1=O [Compound 1009] on giant foxtail (Setaria faberii)?
0

All values here come from patent US12077503B2.
